target: GLP-1R (Homo sapiens); test: GLP-1R activation: cAMP increase in CHO cells stably expressing GLP-1R; type: cell-based; conditions: cAMP increase, CHO cells stably expressing GLP-1R, 10 point dose response, 30 minutes incubation; read-out: EC50
Sequence (P43220 24-463): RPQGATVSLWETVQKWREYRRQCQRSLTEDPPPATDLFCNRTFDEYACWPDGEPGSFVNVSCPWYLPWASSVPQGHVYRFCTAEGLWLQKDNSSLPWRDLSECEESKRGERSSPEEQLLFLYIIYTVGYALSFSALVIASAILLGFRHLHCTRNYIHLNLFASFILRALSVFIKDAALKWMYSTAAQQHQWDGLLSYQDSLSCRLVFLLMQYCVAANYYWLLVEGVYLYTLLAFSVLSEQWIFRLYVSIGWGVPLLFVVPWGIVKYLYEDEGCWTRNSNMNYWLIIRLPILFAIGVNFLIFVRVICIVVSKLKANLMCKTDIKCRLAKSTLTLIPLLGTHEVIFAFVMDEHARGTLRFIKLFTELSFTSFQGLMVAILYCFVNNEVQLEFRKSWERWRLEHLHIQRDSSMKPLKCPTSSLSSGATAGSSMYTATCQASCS
pEC50: −log10 of the molar value.
Label y when pEC50 is at or above 9; anything below gets n.

Check out these entries, answers already filled in.
// query In plain terms: is recorded pEC50 at least 9 for COCCn1c(Cc2cc(F)c(-c3cccc(OCc4cc(F)c(C(F)(F)F)cc4F)n3)cc2F)nc2ccc(C(=O)O)cc21 ?
// result n

// query In plain terms: is recorded pEC50 at least 9 for N#Cc1ccc(COc2cccc(-c3ccc(Cc4nc5c(F)cc(C(=O)O)cc5n4C[C@@H]4CCO4)cc3)n2)c(F)c1 ?
// result y

// query In plain terms: is recorded pEC50 at least 9 for N#Cc1ccc(COc2cccc(-c3cc(F)c(Cc4nc5ccc(C(=O)O)nc5n4CCOC(F)F)cc3F)n2)c(F)c1 ?
// result n

// query In plain terms: is recorded pEC50 at least 9 for COCCn1c(Cc2ccc(-c3ccc(C)c(OCc4ccc(C#N)cc4F)n3)cc2)nc2ccc(C(=O)O)cc21 (single isomer, unassigned) ?
// result n

// query In plain terms: is recorded pEC50 at least 9 for COCCn1c(Cc2ccc(-c3cc(OCc4ccc(C#N)cc4F)ccc3F)cc2F)nc2ccc(C(=O)O)cc21 ?
// result n

Continuing:
// query In plain terms: is recorded pEC50 at least 9 for COCCn1c(Cc2ccc(-c3cccc(OCn4ccc(C(N)=O)cc4=O)n3)cc2F)nc2ccc(C(=O)O)cc21 ?
// result n

// query In plain terms: is recorded pEC50 at least 9 for CNC(=O)C(Cn1c(Cc2ccc(-c3cccc(OCc4ccc(C#N)cc4F)n3)cc2F)nc2ccc(C(=O)O)cc21)OC (single isomer, unassigned) [Example 337] ?
// result n

// query In plain terms: is recorded pEC50 at least 9 for N#Cc1ccc(COc2nc(-c3ccc(Cc4nc5c(F)cc(C(=O)O)cc5n4C[C@@H]4CCO4)cc3F)ccc2F)c(F)c1 ?
// result y

// query In plain terms: is recorded pEC50 at least 9 for COCCn1c(Cc2ccc(-c3cccc(OCc4ccc(C#N)cc4F)n3)c3ccccc23)nc2ccc(C(=O)O)cc21 ?
// result n

// query In plain terms: is recorded pEC50 at least 9 for N#Cc1ccc(COc2cccc(-c3cc(F)c(Cc4nc5ccc(C(=O)O)cc5n4[C@@H]4CCNC4=O)cc3F)n2)c(F)c1 ?
// result n

// query In plain terms: is recorded pEC50 at least 9 for COCCn1c(Cc2ccc(-c3cccc(O[C@@H](C)c4ccccc4)n3)cc2F)nc2ccc(C(=O)O)cc21 ?
// result n

// query In plain terms: is recorded pEC50 at least 9 for COCCn1c(Cc2ccc(-c3cccc(OCc4ccc(C#N)cc4F)n3)cc2F)nc2cc(F)c(C(=O)O)cc21 ?
// result n

// query In plain terms: is recorded pEC50 at least 9 for C[C@@]1(Cn2c(Cc3cc(F)c(-c4cccc(OCc5ccc(C#N)cc5F)n4)cc3F)nc3ccc(C(=O)O)cc32)CCCO1 (racemic) ?
// result n

// query In plain terms: is recorded pEC50 at least 9 for N#Cc1ccc(COc2cccc(-c3cc(F)c(Cc4nc5ccc(C(=O)O)cc5n4C[C@@H]4CCO4)cc3F)n2)cc1 ?
// result y

// query In plain terms: is recorded pEC50 at least 9 for COCCn1c(Cc2ccc(-c3cccc(OCc4ccc(C#N)cc4F)n3)c(Cl)c2)nc2ccc(C(=O)O)cc21 ?
// result n

// query In plain terms: is recorded pEC50 at least 9 for N#CCC1(Cn2c(Cc3cc(F)c(-c4ccnc(OCc5ccc(C#N)cc5F)n4)cc3F)nc3c(F)cc(C(=O)O)cc32)CC1 ?
// result n

###

molecular target: GLP-1R (Homo sapiens); assay: GLP-1R activation: cAMP increase in CHO cells stably expressing GLP-1R; format: cell-based; conditions: cAMP increase, CHO cells stably expressing GLP-1R, 10 point dose response, 30 minutes incubation; read-out: EC50
Each entry below carries its reported EC50.
# output: bare number, implied unit nM

// query Value wanted: EC50 (GLP-1R (Homo sapiens)) of entry CCn1nncc1Cn1c(Cc2ccc(-c3cccc(OCc4ccc(C#N)cc4F)n3)cc2F)nc2ccc(C(=O)O)cc21 [Example 370]
// result 3.34

// query Value wanted: EC50 (GLP-1R (Homo sapiens)) of entry N#Cc1ccc(COc2cccc(-c3ccc(Cc4nc5ccc(C(=O)O)cc5n4C[C@H]4CCOC4)c(F)c3)n2)c(F)c1 [Example 196]
// result 4.61

// query Value wanted: EC50 (GLP-1R (Homo sapiens)) of entry COCCn1c(Cc2ccc(-c3cccc(OCc4ccc(C(F)(F)F)cc4)n3)cc2F)nc2ccc(C(=O)O)cc21 [Example 508]
// result 16.5

// query Value wanted: EC50 (GLP-1R (Homo sapiens)) of entry N#CCC1(Cn2c(Cc3cc(F)c(-c4ccnc(OCc5ccc(C#N)cc5F)n4)cc3F)nc3ccc(C(N)=O)nc32)CC1 [Example 599]
// result 0.98

// query Value wanted: EC50 (GLP-1R (Homo sapiens)) of entry COC[C@H](c1ccccc1)n1c(Cc2cc(F)c(-c3cccc(OCc4ccc(C#N)cc4F)n3)cc2F)nc2ccc(C(=O)O)cc21 [Example 717]
// result 41.5

// query Value wanted: EC50 (GLP-1R (Homo sapiens)) of entry COCCn1c(Cc2cc(F)c(-c3ccc(F)c(OCc4ccc(C(F)F)cc4F)n3)cc2F)nc2c(F)cc(C(=O)O)cc21 [Example 762]
// result 0.9

Next:
// query Value wanted: EC50 (GLP-1R (Homo sapiens)) of entry CCn1cncc1Cn1c(Cc2ccc(-c3cccc(OCc4ccc(C#N)cc4F)n3)c(F)c2)nc2ccc(C(=O)O)cc21 [Example 520]
// result 0.36

###

test: Microsomal stability, human liver microsomes (predicted hepatic clearance); details: predicted from in vitro microsomal stability data
Okay, here is how we bin by Predicted Hepatic Clearance (Pred. Cl.): lower: < 6 mL/min/kg; middle: ≥ 6 mL/min/kg and < 8 mL/min/kg; upper: ≥ 8 mL/min/kg

// query The entry to classify is N#Cc1ccc(COc2cccc(-c3cc(F)c(Cc4nc5ccc(C(=O)O)cc5n4Cc4ccccn4)cc3F)n2)c(F)c1 [Example 311] ; which class holds it?
// result middle

// query The entry to classify is COCCn1c(Cc2ccc(-c3cccc(OCc4ccccc4SC)n3)cc2F)nc2ccc(C(=O)O)cc21 [Example 249] ; which class holds it?
// result upper

// query The entry to classify is N#Cc1ccc(COc2cccc(-c3cc(F)c(Cc4nc5c(F)cc(C(=O)O)cc5n4C[C@@H]4CCO4)cc3F)n2)cn1 [Example 659] ; which class holds it?
// result lower

// query The entry to classify is N#Cc1ccc(COc2cccc(-c3ccc(Cc4nc5ccc(C(=O)O)nc5n4CC4(CF)CC4)c(F)c3)n2)c(F)c1 [Example 355] ; which class holds it?
// result lower

// query The entry to classify is CO[C@H]1C[C@H](n2c(Cc3cc(F)c(-c4cccc(OCc5ccc(C#N)cc5F)n4)cc3F)nc3ccc(C(=O)O)cc32)C1 [Example 567] ; which class holds it?
// result middle

// query The entry to classify is COCCn1c(Cc2ccc(-c3cccc(OCc4ccc(C#N)cc4F)n3)c(Cl)c2)nc2ccc(C(=O)O)cc21 [Example 101] ; which class holds it?
// result middle

// query The entry to classify is Cc1nc(Cn2c(Cc3cc(F)c(-c4cccc(OCc5ccc(C#N)cc5F)n4)cc3F)nc3ccc(C(=O)O)cc32)oc1C [Example 615] ; which class holds it?
// result lower

// query The entry to classify is COCCn1c(Cc2ccc(-c3cccc(NCc4ccc(C#N)cc4F)n3)cc2F)nc2ccc(C(=O)O)cc21 [Example 170] ; which class holds it?
// result middle

// query The entry to classify is COCCn1c(Cc2ccc(-c3nc(OCc4ccc(C#N)cc4F)ccc3Cl)cc2F)nc2ccc(C(=O)O)cc21 [Example 115] ; which class holds it?
// result upper

// query The entry to classify is N#Cc1ccc(COc2cccc(-c3cc(F)c(Cc4nc5ccc(C(=O)O)cc5n4CCOC4CCC4)cc3F)n2)c(F)c1 [Example 628] ; which class holds it?
// result lower

// query The entry to classify is COCCC1(Cn2c(Cc3ccc(-c4cccc(OCc5ccc(C#N)cc5F)n4)cc3F)nc3ccc(C(=O)O)cc32)CC1 [Example 291] ; which class holds it?
// result lower

// query The entry to classify is N#Cc1ccc(COc2cccc(-c3ccc(Cc4nc5ccc(C(=O)O)cc5n4CC4(n5ccnn5)CC4)cc3)n2)c(F)c1 [Example 461] ; which class holds it?
// result middle

// query The entry to classify is N#Cc1ccc(COc2cccc(-c3cc(F)c(Cc4nc5ccc(C(=O)O)cc5n4CC45CC(CO4)C5)cc3F)n2)c(F)c1 [Example 898] ; which class holds it?
// result upper

// query The entry to classify is COC(Cn1c(Cc2ccc(-c3cccc(OCc4ccc(C#N)cc4F)n3)cc2F)nc2ccc(C(=O)O)cc21)C(=O)O (single isomer, unassigned) [Example 333] ; which class holds it?
// result lower

// query The entry to classify is N#Cc1ccc(COc2cccc(-c3ccc(Cc4nc5ccc(C(=O)O)cc5n4CC4(CO)COC4)c(F)c3)n2)c(F)c1 [Example 326] ; which class holds it?
// result upper

// query The entry to classify is CC1(Cn2c(Cc3ccc(-c4cccc(OCc5ccc(C#N)cc5F)n4)cc3F)nc3ccc(C(=O)O)cc32)CCC1 [Example 384] ; which class holds it?
// result lower

Reference for the values: patent US11702404B2
